Kindly supply the reported Curve Class (counterscreen) values for the records listed here.
- study.target: GST-CIB1 : F-scrambled peptide (Homo sapiens, UniProt Q99828)
- Construct: made in house; host or cells: BL-21 plus RIL cells (E. coli)
- Sequence (Q99828 1-191): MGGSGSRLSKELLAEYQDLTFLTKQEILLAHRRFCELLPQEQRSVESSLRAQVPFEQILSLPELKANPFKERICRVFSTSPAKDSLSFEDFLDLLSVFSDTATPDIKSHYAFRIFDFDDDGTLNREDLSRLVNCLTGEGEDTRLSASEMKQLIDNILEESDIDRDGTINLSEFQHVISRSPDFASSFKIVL
- assay.method.text: FP scrambled-peptide counter screen, 1536-well format
- Format: binding
- experimental.parameters: counterscreen, qHTS curve class; negative sign = inhibitory curve
One number for each entry.

Here's what some known entries look like.
molecule | Curve Class (counterscreen)
CCCC(=O)c1cc(O)c(O)cc1O | -1.1
C=C(CC)C(=O)c1ccc(OCC(=O)O)c(Cl)c1Cl | 4

Provide Curve Class (counterscreen) values for the following items, in order.
1. Cc1ccc2nc3sc(C(=O)NCc4ccco4)cc3cc2c1.O=C(O)C(F)(F)F
2. C=C1C(OC(=O)/C(C)=C\C)[C@@]23CCC4[C@@](C)(CCC[C@@]4(C)C(=O)O)C2CC[C@H]1C3OC(C)=O (stereo partly drawn)
3. O=C(O)CSc1cc(NS(=O)(=O)c2ccc(Br)cc2)c2ccccc2c1O
4. COc1ccccc1C(=O)/C=C1/C(=O)Nc2ccc(C)cc21.O=C(O)C(F)(F)F
5. CN1CCN(c2cccc(Nc3nn4c(=O)c5ccc(Br)cc5nc4s3)c2)CC1.Cl

1: 4; 2: -1.4; 3: -1.2; 4: -1.4; 5: -2.2

* * *

- study.target: CIB1 and αIIb interaction (CIB1-GST : F-αIIb peptide) (Homo sapiens)
- Construct: made in house; host or cells: BL-21 plus RIL cells (E. coli)
- Sequence (Q99828 1-191): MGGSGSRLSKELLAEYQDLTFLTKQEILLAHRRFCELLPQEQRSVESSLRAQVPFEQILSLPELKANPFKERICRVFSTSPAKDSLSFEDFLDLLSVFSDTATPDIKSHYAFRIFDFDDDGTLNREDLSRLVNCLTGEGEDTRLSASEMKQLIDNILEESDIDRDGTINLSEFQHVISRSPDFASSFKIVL
- assay.method.text: FP assay, 1536-well qHTS format (primary and confirmatory screen)
- Type: binding
- experimental.parameters: qHTS primary screen hits, Table S2; negative = inhibition
recorded.endpoint: Efficacy (%)
Answers are plain numbers, in %.

compound | recorded.endpoint | value
O=C(O)C(F)(F)F.O=C1CC(c2ccc(F)cc2F)c2sc(N3CCOCC3)nc2N1 (stereo not shown) | Efficacy (%) | -42
COc1ccc(/C=C/C(=O)Nc2ccccc2C(=O)O)cc1OC | Efficacy (%) | -29
Cl.Cl.NC(CO)C(=O)NNCc1ccc(O)c(O)c1O (stereo not shown) | Efficacy (%) | -50
O=C1Nc2ccc3ncsc3c2/C1=C/c1c[nH]cn1 | Efficacy (%) | -27
O=C(O)C(F)(F)F.O=c1[nH]c2ccccc2n1C1CCN(CCCC(c2ccc(F)cc2)c2ccc(F)cc2)CC1 | Efficacy (%) | -216
Cc1cccc(C(=O)c2no[n+]([O-])c2C(=O)c2cccc(C)c2)c1.O=C(O)C(F)(F)F | Efficacy (%) | -52

Now consider a different compound.
Identify measured Efficacy (%) corresponding to O=C(O)C(F)(F)F.O=C1Nc2ccccc2/C1=N/NC(=S)Nc1c(F)cc(F)cc1F
-30
